- SYSTEM_UNDER_TEST: medaka MTNR1a-like (MTNR1d) (Oryzias latipes, UniProt A0A3B3HMP3)
- Sequence (A0A3B3HMP3 1-354): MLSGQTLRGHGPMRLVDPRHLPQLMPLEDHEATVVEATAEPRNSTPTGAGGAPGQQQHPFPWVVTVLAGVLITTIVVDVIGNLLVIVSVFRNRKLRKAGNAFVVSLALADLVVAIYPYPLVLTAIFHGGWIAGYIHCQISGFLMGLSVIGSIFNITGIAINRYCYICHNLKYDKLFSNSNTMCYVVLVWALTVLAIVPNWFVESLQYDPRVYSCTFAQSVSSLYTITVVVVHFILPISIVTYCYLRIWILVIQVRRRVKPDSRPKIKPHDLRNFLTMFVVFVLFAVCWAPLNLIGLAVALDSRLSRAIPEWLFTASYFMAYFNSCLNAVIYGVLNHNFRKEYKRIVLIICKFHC
- ASSAY_COMMENT: cAMP-responsive (CRE-luc) reporter gene assay, agonist mode
- Type: cell-based
- MEASUREMENT_CONDITIONS: stably transfected Hepa-E1 cells, 6.25 × 10^−7 M forskolin, 24 h; NC: not calculable (low activity, curve did not reach maximum); read-out: Potency (M) MTNR1a-like
Readings of EC50 for the listed molecules
VALUE_TYPE: EC50 (M)

molecule="COc1ccc2[nH]c(I)c(CCNC(C)=O)c2c1 [2-Iodo melatonin, 2-Iodomelatonin]" value_type=EC50 unit_of_measure=M experimental_value=4e-10
molecule="CCC(=O)NC1Cc2ccccc2C(c2ccccc2)C1 (centres unmarked) [4P-PDOT]" value_type=EC50 unit_of_measure=M experimental_value=1.2e-07

* * *

- SYSTEM_UNDER_TEST: UniProt A0A3B3HMP3
- ASSAY_COMMENT: cAMP-responsive (CRE-luc) reporter gene assay, agonist mode
- Format: cell-based
- MEASUREMENT_CONDITIONS: MTNR1d (MTNR1a-like) transfected Hepa-E1 cells, cAMP-responsive reporter; read-out: EC50 MTNR1d
pEC50: −log10 of the molar value.
VALUE_TYPE: pEC50

structure=CC(=O)NCCc1c(Cc2ccccc2)[nH]c2ccccc12 experimental_value="< 6.00"

* * *

- SYSTEM_UNDER_TEST: medaka MTNR1c (Oryzias latipes, UniProt A0A0D6A8H7)
- Sequence (A0A0D6A8H7 entry or part of it): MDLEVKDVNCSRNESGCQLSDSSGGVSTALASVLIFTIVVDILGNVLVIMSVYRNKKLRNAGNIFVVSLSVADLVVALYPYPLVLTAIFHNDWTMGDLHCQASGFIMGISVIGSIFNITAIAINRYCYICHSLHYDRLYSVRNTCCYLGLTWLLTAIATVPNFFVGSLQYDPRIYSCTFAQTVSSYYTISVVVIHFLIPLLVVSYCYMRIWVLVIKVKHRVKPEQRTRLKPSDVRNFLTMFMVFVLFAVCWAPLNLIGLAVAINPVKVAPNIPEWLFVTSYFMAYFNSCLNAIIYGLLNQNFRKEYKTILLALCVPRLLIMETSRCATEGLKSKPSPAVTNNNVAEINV
- ASSAY_COMMENT: cAMP-responsive (CRE-luc) reporter gene assay, agonist mode
- Format: cell-based
VALUE_TYPE: EC50

structure=COc1ccc2[nH]cc(CCNC(C)=O)c2c1 experimental_value="0.062 nM"
